Below: a set of entries, each annotated with reported pIC50.
Tested on: Mycobacterium tuberculosis
PROTOCOL_SUMMARY: Antimicrobial activity against Mycobacterium tuberculosis H37Rv in african green monkey Vero cells by microplate alamar blue assay
Format: functional, organism-based
ASSAY_SETUP: Vero
The scale used: pIC50 is minus the common logarithm of the concentration in molar units.

1) COc1ccc(Cn2cnc3c(Cc4ccccc4)nc(Cl)nc32)cc1: 4.70
2) C(=C1/OCc2ccccc21)/c1ncnc2c1ncn2Cc1ccccc1: 5.37

Moving on to the next compound.
Tested on Mycobacterium tuberculosis: "COc1ccc(Cn2cnc3c(/C=C/c4ccccc4)nc(Cl)nc32)cc1" . Observed pIC50: 5.10
